assay: in vitro; conditions: salmonella typhimurium tm677, N/No (toxicity)
Reported property: viability at 0.5 h, 200 µM (%)

                               smiles_input  recorded_result
0  O=[N+]([O-])[Rh-3]([N+](=O)[O-])([N+](=O)[O-])([N+](=O)[O-])([N+](=O)[O-])[N+](=O)[O-].[K+].[K+].[K+]              105
